Entries and their koff values follow.
- TARGET_OR_SYSTEM: T1, human DLL3 antigen protein (Kactus Biosystems, Cat. No. DLL-HM103) (human, UniProt Q9NYJ7 27-492)
- T1 sequence: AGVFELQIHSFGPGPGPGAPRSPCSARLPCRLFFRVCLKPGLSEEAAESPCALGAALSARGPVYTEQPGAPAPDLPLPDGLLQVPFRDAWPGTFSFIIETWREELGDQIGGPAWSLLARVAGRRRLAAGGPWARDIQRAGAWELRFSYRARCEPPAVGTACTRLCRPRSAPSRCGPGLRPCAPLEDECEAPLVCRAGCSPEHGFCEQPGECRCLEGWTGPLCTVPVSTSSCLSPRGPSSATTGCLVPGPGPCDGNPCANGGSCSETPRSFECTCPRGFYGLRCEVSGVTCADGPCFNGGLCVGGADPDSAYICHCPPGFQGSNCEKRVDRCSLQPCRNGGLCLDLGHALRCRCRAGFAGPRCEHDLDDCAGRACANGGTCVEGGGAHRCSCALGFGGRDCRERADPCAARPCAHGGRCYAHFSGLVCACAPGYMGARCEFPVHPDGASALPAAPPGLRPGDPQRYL
- PROCEDURE_DETAILS: SPR (Biacore 8K), antibody captured on anti-human Fc, DLL3 in solution
API: value field is a number in s⁻¹; no unit string.

Illustrative cases are given below, each with its answer.
Q) What value of koff has been reported for the following binder? hDLL3-122 camelid-derived humanized anti-DLL3 antibody (antibody, V domains shown) VH: EVQLVESGGGLVQPGGSLRLSCAASGDTYRSYCMGWFRQAPGKEREGVADIVSDGSTSYADSVKGRFTISRDNSKNTLYLQMNSLRAEDTAVYYCAVDRGGSGGYCYTGRYDYWGQGTLVTVSS
A) 0.000466

Q) Now the binder hDLL3-3-2 camelid-derived humanized anti-DLL3 antibody (antibody, V domains shown) VH: EVQLVESGGGLVQPGGSLRLSCKSPTYTISSGYMGWFRQAPGKEREGVAAIYIGGSTTLYADSVKGRFTISRDNSKNTLYLQMNSLRAEDTAVYYCAAQLRPNSAYHPLDGRKYNYWGQGTLVTVSS
A) 0.000776

# next binder below
Q) What value of koff has been reported for the following binder? hDLL3-26 camelid-derived humanized anti-DLL3 antibody (antibody, V domains shown) VH: EVQLVESGGGLVQPGGSLRLSCAASGDIYSSSYVGWFRQAPGKEREGVAIIYTSGDSTYYADSVKGRFTISRDNSKNTLYLQMNSLRAEDTAVYYCAARFAIDNSNYWGQGTLVTVSS
A) 0.000355
